assay_system: human CB1 receptor (Homo sapiens)
Sequence (P21554 whole entry): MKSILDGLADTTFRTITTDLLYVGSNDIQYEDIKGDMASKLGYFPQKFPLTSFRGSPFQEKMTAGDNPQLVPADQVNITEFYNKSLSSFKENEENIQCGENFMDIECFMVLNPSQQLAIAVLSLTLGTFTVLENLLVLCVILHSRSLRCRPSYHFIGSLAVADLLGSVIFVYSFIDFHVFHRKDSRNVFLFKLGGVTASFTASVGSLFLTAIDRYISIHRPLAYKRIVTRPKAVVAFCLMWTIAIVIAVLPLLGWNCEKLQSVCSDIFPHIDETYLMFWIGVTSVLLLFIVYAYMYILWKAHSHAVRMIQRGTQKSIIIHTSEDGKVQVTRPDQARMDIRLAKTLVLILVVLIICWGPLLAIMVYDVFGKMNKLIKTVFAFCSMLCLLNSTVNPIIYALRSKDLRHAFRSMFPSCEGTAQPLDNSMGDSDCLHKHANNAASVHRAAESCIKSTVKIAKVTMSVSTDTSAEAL
procedure_summary: biochemical
Format: binding
Parameters: purchased Merck HTS019M; host or cells: Chem-1 cells
test_parameters: Ki (μM, 95% CI)
observable: Ki (µM)

>  <compound>
COc1cccc2c1ccn2CCNC(=O)[C@H](Cc1cn(C)c2ccccc12)NC(=O)OC(C)(C)C

>  <result_units>
µM

>  <reported>
6.6

$$$$
>  <compound>
COc1ccc([C@@H](CC(=O)NCc2cccc3[nH]ccc23)c2cc3c(cc2O)OCO3)cc1

>  <result_units>
µM

>  <reported>
6.8

$$$$
>  <compound>
O=C(/C=C/c1ccc(O)cc1)OC[C@H]1O[C@@H](Oc2c(-c3ccc(O)cc3)oc3cc(O)cc(O)c3c2=O)[C@H](O)[C@@H](O)[C@@H]1O [Compound 22, Tiliroside]

>  <result_units>
µM

>  <reported>
47.2

$$$$
>  <compound>
COc1cc(C(C)=O)ccc1OCCCN1CCC(c2noc3cc(F)ccc23)CC1

>  <result_units>
µM

>  <reported>
87.9

$$$$
>  <compound>
COc1cc(C2Oc3cc([C@H]4Oc5cc(O)cc(O)c5C(=O)[C@@H]4O)ccc3OC2CO)ccc1O (stereo partly shown)

>  <result_units>
µM

>  <reported>
165

$$$$
>  <compound>
COc1cc(-c2c3cn[nH]c3nc3c2oc2c(O)c(O)ccc23)ccc1OCc1ccc(C(C)C)cc1

>  <result_units>
µM

>  <reported>
0.8

$$$$
>  <compound>
COc1cc(O)c2c(=O)cc(-c3ccc(OC)c(-c4c(O)cc(O)c5c(=O)cc(-c6ccc(O)cc6)oc45)c3)oc2c1

>  <result_units>
µM

>  <reported>
8.6

$$$$
>  <compound>
O=C1[C@@H]2[C@H]3CC[C@H](C3)[C@@H]2C(=O)N1C[C@@H]1CCCC[C@H]1CN1CCN(c2nsc3ccccc23)CC1

>  <result_units>
µM

>  <reported>
39.8

$$$$
>  <compound>
O=c1[nH]c2ccccc2n1CCN1CCN(c2cccc(C(F)(F)F)c2)CC1

>  <result_units>
µM

>  <reported>
109

$$$$
>  <compound>
CC(C)OC(=O)CCC/C=C\C[C@@H]1[C@@H](/C=C/[C@@H](O)COc2cccc(C(F)(F)F)c2)[C@H](O)C[C@@H]1O

>  <result_units>
µM

>  <reported>
3.6

$$$$
>  <compound>
O=C(O[C@@H]1O[C@@H]2COC(=O)c3cc(O)c(O)c(O)c3-c3c(cc(O)c(O)c3O)C(=O)O[C@H]([C@H]1O)[C@@H]2O)c1cc(O)c(O)c(O)c1

>  <result_units>
µM

>  <reported>
48

$$$$
>  <compound>
C[C@@]12C[C@@]3(O)O[C@@H](O1)[C@]1(COC(=O)c4ccccc4)[C@H]3C[C@@]12O[C@@H]1O[C@H](COC(=O)c2ccccc2)[C@@H](O)[C@H](O)[C@H]1O

>  <result_units>
µM

>  <reported>
179

$$$$
>  <compound>
COc1ccccc1Oc1c(NS(=O)(=O)c2ccc(C(C)(C)C)cc2)nc(-c2ncccn2)nc1OCCO

>  <result_units>
µM

>  <reported>
259

$$$$
